// provenance: PubChem BioAssay (Tox21)

# measurementProtocol: qHTS assay for identifying genotoxic compounds that show differential cytotoxicity against isogenic chicken DT40 cell lines with known DNA damage response pathways - Rad54/Ku70 mutant cell line (AID 743015); further: nearly all actives have a fitted effect of over 60% in size; further: potency means the concentration at half of the fitted maximal effect
# conditionInfo: DT40 Rad54/Ku70 mutant viability, CellTiter-Glo, 40 h; series mostly up to 66.8 µM
Records with an inconclusive call do not appear. Activity calls are given as the source filed them. The call rests on the fitted dose curve; in most records, active means well fitted cell-killing curve with a large enough effect in the repeat runs; inconclusive means weak or mixed curves; inactive means no such curve, though single readings can be large or run the other way.
measure: Potency

molecule	measure	experimentalResult
O=C(CC(=O)c1ccccc1)c1ccccc1	Potency	23.3 µM (active)
CCOC(=O)CC(C)C	Potency	inactive
CC[C@H](C)[C@H](N)C(=O)O	Potency	inactive
Cc1ccc(C)o1	Potency	inactive
CCCCCC/C=C/C=O	Potency	inactive

Challenge: Data request, read-out Potency, for CN1CCC[C@@H]1c1cccnc1
Response given: inactive

Challenge: Now the molecule CN1CCN(C2=Nc3cc(Cl)ccc3Nc3ccccc32)CC1
Response given: 26.6 µM (active)

Challenge: Now the molecule CN(C)CC/C=C1\c2ccccc2COc2ccccc21
Response given: 29.8 µM (active)

Challenge: Now the molecule ClC(Cl)(Cl)c1ccc(C(Cl)(Cl)Cl)cc1
Response given: inactive

Challenge: Now the molecule O=C(CCN1CCN2CCCC2C1)N1c2ccccc2Sc2ccc(Cl)cc21 (configuration not stated)
Response given: 23.7 µM (active)

Challenge: Now the molecule CCCC[C@H]1CN(CC2CCOCC2)C(=O)OC12CCN(C1(C)CCN(C(=O)c3c(C)ncnc3C)CC1)CC2
Response given: inactive

Challenge: Now the molecule CC(C)c1cccc(C(C)C)c1NC(=O)NS(=O)(=O)c1cc(C(C)(C)O)co1
Response given: inactive

====

# measurementProtocol: qHTS assay to identify small molecule that activate the aryl hydrocarbon receptor (AhR) signaling pathway - cell viability counter screen (AID 743086);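 further: HepG2 liver cells carrying the AhR DRE luciferase reporter; nearly all actives have a fitted effect of over 45% in size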
# conditionInfo: HepG2-AhR-luc viability, CellTiter-Fluor, 24 h; series mostly up to 70.3 µM
Inconclusive results are not listed. Calls of active or inactive are those of the source. The call rests on the fitted dose curve; in most records, active means well fitted cell-killing curve with a large enough effect in the repeat runs; inconclusive means weak or mixed curves, or effect the other way; inactive means flat fitted curve, though single readings scatter.
Answer with one of the outcomes given here: active, inactive

A selection of reference data follows.
compound	labelValue
Oc1ccc(Sc2ccc(O)cc2)cc1	inactive
CC(C)(C)C1CCCCC1O (stereo unspecified)	inactive
CC(C(=O)O)c1ccc(C(=O)c2ccccc2)s1 (stereo unspecified)	inactive
FC(F)(F)C(F)(F)C(F)(F)C(F)(F)C(F)(F)C(F)(F)CCI	inactive
N[C@H]1C(O)O[C@H](CO)[C@H](O)[C@@H]1O (stereo partly specified)	inactive

Challenge: Query: recorded result category for Cc1ccccc1N=Nc1ccc(N=Nc2c(O)ccc3ccccc23)c(C)c1 in this test
Response given: inactive

Challenge: Now the compound Cc1ccc(C(C)c2ccc(C)c(C)c2)cc1C
Response given: inactive

====

# measurementProtocol: qHTS assay to identify small molecule agonists of the estrogen receptor beta (ER-beta) signaling pathway - cell viability counter screen (AID 1259380); further: nearly all actives have a fitted effect of over 30% in size
# conditionInfo: ER-beta-bla HEK293T viability, CellTiter-Glo luminescence, 16 h; series mostly up to 92.4 µM
Results filed as inconclusive are left out. The source made the active and inactive calls. Calls follow the shape of the dose curve; as a rule, active = well fitted cell-killing curve with a large enough effect in the repeat runs; inconclusive = weak or mixed curves, or effect the other way; inactive = flat fitted curve, though single readings scatter.
Answer with one of the outcomes given here: 1.0 (active), 0.0 (inactive)

A selection of reference data follows.
compound	labelValue
O=C1Nc2cc(Cl)ccc2Oc2ccccc21	0.0
CCc1nn(C2CCCCC2)c2cc(C3(C#N)CCC(C(=O)O)CC3)ccc12 (stereo not given)	1.0
CCCC(C)C	1.0
CC1=CC(=O)/C(=C(/C)O)C(=O)O1	0.0
CCCCCC/C=C/C=O	0.0

Challenge: Query: recorded result category for O=C(O)Cc1sc(-c2ccccc2)nc1-c1ccc(Cl)cc1 in this test
Response given: 1.0

Challenge: Now the compound NCCCOCCOCCOCCCN
Response given: 1.0

Challenge: Now the compound CC(=O)O[C@@H]1C(=O)O[C@@H]2[C@H]1OC(=O)[C@@H]2OC(C)=O
Response given: 0.0

Challenge: Now the compound CCCCOc1ccc(CC(=O)NO)cc1
Response given: 1.0

Challenge: Now the compound CC[C@@H]1C[C@H](N(Cc2cc(C(F)(F)F)cc(C(F)(F)F)c2)C(C)=O)c2cc(C(F)(F)F)ccc2N1C(=O)OC(C)C
Response given: 0.0

Challenge: Now the compound CCOC(=O)CC(=O)c1cc(F)c(Cl)nc1Cl
Response given: 0.0

Challenge: Now the compound O=C(NN1CCCC1)NS(=O)(=O)c1ccc(Cl)cc1
Response given: 0.0

Challenge: Now the compound COc1ccc([C@@H]2Sc3ccccc3N(CCN(C)C)C(=O)[C@@H]2OC(C)=O)cc1
Response given: 1.0

Challenge: Now the compound CC(C)(C)c1cc(CCC(=O)OCC(COC(=O)CCc2cc(C(C)(C)C)c(O)c(C(C)(C)C)c2)(COC(=O)CCc2cc(C(C)(C)C)c(O)c(C(C)(C)C)c2)COC(=O)CCc2cc(C(C)(C)C)c(O)c(C(C)(C)C)c2)cc(C(C)(C)C)c1O
Response given: 0.0

Challenge: Now the compound CN1CCC(OC(c2ccccc2)c2ccccc2)CC1
Response given: 0.0

Challenge: Now the compound COc1ccc2[nH]c(S(=O)Cc3ncc(C)c(OC)c3C)nc2n1 (stereo not given)
Response given: 0.0

Challenge: Now the compound CCOC(=O)C1=C(C)NC(C)=C(C(=O)OC)C1c1cccc([N+](=O)[O-])c1 (stereo not given)
Response given: 0.0

Challenge: Now the compound CC(C)c1cccc(C(C)C)c1NC(=O)NS(=O)(=O)c1cc(C(C)(C)O)co1
Response given: 0.0

Challenge: Now the compound O=C(O)/C=C/c1cnc[nH]1
Response given: 0.0

Challenge: Now the compound O=S(=O)(O)c1ccc(O)c2ncccc12
Response given: 0.0

====

# measurementProtocol: qHTS assay to identify small molecule antagonists of the thyroid receptor (TR) signaling pathway (AID 743065); further: nearly all actives have a fitted effect of over 55% in size
# conditionInfo: GH3.TRE-Luc, T3-stimulated luciferase inhibition, 23.5 h; series mostly up to 70.3 µM
# Description: U.S. Tox21 Program National Center for Advancing Translational Sciences [NCATS] NIH Chemical Genomics Center [NCGC] U.S. Environmental Protection Agency [EPA] National Institutes of Environmental Health Sciences [NIEHS] National Toxicology Program [NTP] U.S. Food and Drug Administration [FDA] Tox21 Assay Overview: Thyroid receptor (TR), a nuclear hormone receptor, plays an important role in development, proliferation, differentiation, metabolism, brain function, and cardiovascular system. […]
Results filed as inconclusive are left out. Active and inactive are the calls of the source. The call rests on the fitted dose curve; in most records, active means well fitted inhibition curve with a large enough effect in the repeat runs; inconclusive means weak or mixed curves; inactive means no such curve, though single readings can be large or run the other way.
Answer with one of the outcomes given here: active, inactive

A selection of reference data follows.
compound	labelValue
C=C(C)C(=O)OCCOc1ccccc1	inactive
CCCCCCCCCCCCCCCC(=O)OC/C=C(C)/C=C/C=C(C)/C=C/C1=C(C)CCCC1(C)C	inactive
CN(c1nccc(=O)[nH]1)C1CCN(c2nc3ccccc3n2Cc2ccc(F)cc2)CC1	inactive
O=C=NC1CCC(CC2CCC(N=C=O)CC2)CC1 (centres undefined)	inactive

Challenge: Query: recorded result category for O=C(CCN1CCN2CCCC2C1)N1c2ccccc2Sc2ccc(Cl)cc21 (centres undefined) in this test
Response given: active

Challenge: Now the compound COCCOCCOCCOCCOC
Response given: inactive

Challenge: Now the compound C1CCC2OC2C1 (centres undefined)
Response given: inactive

Challenge: Now the compound CC(=O)O[C@@H]1C(=O)O[C@@H]2[C@H]1OC(=O)[C@@H]2OC(C)=O
Response given: inactive

Challenge: Now the compound CCCOc1ccc2nc(NC(=O)OC)[nH]c2c1
Response given: active

Challenge: Now the compound CNCC[C@@H](Oc1ccccc1C)c1ccccc1
Response given: active

Challenge: Now the compound NC1CCN(c2nc3c(cc2F)c(=O)c(C(=O)O)cn3-c2ccc(F)cc2F)C1 (centres undefined)
Response given: active

Challenge: Now the compound CCCCCCCCCCCCC(=O)O
Response given: inactive

Challenge: Now the compound C=CCCCCCC
Response given: inactive

Challenge: Now the compound CCOc1nc2cccc(C(=O)O)c2n1Cc1ccc(-c2ccccc2-c2nn[nH]n2)cc1
Response given: active

====

# studySystem: Cytochrome P450 2C19 (Homo sapiens)
# measurementProtocol: Cytochrome P450 Family 2 Subfamily C Member 19 (CYP2C19) small molecule antagonists: luciferase reporter qHTS assay (AID 1671197); further: nearly all actives have a fitted effect of over 65% in size
# conditionInfo: P450-Glo CYP2C19 enzyme, luciferin luminescence, 1 h; series mostly up to 115 µM
Results filed as inconclusive are left out. The source made the active and inactive calls. Calls come from the whole dose curve; as a rule, active = well fitted inhibition curve with a large enough effect in the repeat runs; inconclusive = weak or mixed curves; inactive = no such curve, though single readings can be large or run the other way.
Answer with one of the outcomes given here: active, inactive

A selection of reference data follows.
compound	labelValue
CCCOc1ccc2nc(NC(=O)OC)[nH]c2c1	inactive
CC(=O)O[C@H]1C[C@@H]2CC[C@@H]3[C@H](CC[C@@]4(C)[C@H]3C[C@H]([N+]3(C)CCCCC3)[C@@H]4OC(C)=O)[C@@]2(C)C[C@@H]1N1CCCCC1	inactive
O=C(O)C(c1ccc(Cl)cc1)c1ccc(Cl)cc1	active
Cn1c(NCCN(CCO)CCCc2ccc([N+](=O)[O-])cc2)cc(=O)n(C)c1=O	inactive
S=C(S)NCCNC(=S)S	active
COc1ccc2[nH]c(S(=O)Cc3ncc(C)c(OC)c3C)nc2n1 (stereo not given)	active
CN1CCC(=C2c3ccccc3CCc3sccc32)CC1	active
CCCCCCCCCC=O	inactive
N#CCc1cccc(C(F)(F)F)c1	inactive
O=C(O)c1cccc(N(Cc2cccnc2)c2ccc(OC(F)F)c(OC(F)F)c2)c1	active

Challenge: Query: recorded result category for O=C=NC1CCC(CC2CCC(N=C=O)CC2)CC1 (stereo not given) in this test
Response given: active

Challenge: Now the compound COC(=O)CSc1cc(N=c2sc(=O)n3n2CCCC3)c(F)cc1Cl
Response given: active
